Consider the following compounds and their measured pKi readings.
assay-target: GST-Bcl-2 (Homo sapiens, UniProt P10415)
Sequence (P10415 whole entry): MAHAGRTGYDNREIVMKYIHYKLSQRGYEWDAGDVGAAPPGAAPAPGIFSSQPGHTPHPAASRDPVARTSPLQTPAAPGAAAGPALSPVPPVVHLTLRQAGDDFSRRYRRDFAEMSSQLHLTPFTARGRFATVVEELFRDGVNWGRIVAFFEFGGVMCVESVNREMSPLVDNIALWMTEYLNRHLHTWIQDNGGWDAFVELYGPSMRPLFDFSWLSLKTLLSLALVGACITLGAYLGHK
assay-notes: TR-FRET binding assay, GST-Bcl-2 with F-Bak peptide probe
assay-context: TR-FRET Binding Affinity, GST-Bcl-2, F-Bak peptide probe
pKi: −log10 of the molar value.

cpd-smiles | pKi
O=C(NS(=O)(=O)c1ccc(-n2ncc([N+](=O)[O-])n2)cc1)c1ccc(N2CCN(Cc3ccccc3-c3ccc(Cl)cc3)CC2)cc1Oc1ccccc1 | 7.44
CC1(C)CCC(CN2CCN(c3ccc(C(=O)NS(=O)(=O)c4ccc(OCC5CCOCC5)c([N+](=O)[O-])c4)c(Oc4ccc5[nH]ccc5c4)c3)CC2)=C(c2ccc(Cl)cc2)C1 | 10.02
O=C(NS(=O)(=O)c1ccc(NCC2CCOCC2)c([N+](=O)[O-])c1)c1ccc(N2CCN(Cc3c(OCCN4CCOCC4)cccc3-c3ccc(Cl)cc3)CC2)cc1Oc1ccc2[nH]ccc2c1 | 9.26
O=C(NS(=O)(=O)c1ccc(NCCCN2CCCC2)c([N+](=O)[O-])c1)c1ccc(N2CCN(Cc3ccccc3-c3ccc(Cl)cc3)CC2)cc1Oc1ccccc1 | 9.71
CN(C)CCOc1ccc(-c2ccc(Cl)cc2)c(CN2CCN(c3ccc(C(=O)NS(=O)(=O)c4ccc(NCC5CCOCC5)c(S(=O)(=O)C(F)(F)F)c4)c(Oc4ccccc4)c3)CC2)c1 | 9.35
